assay: Human hepatic microsomal intrinsic clearance; type: in vitro ADME; settings: human hepatic microsomes
measurement.label: CLint scaled (L/h/kg)

mol=CC(=O)N[C@H]1CC[C@@H](n2ncc(Cl)c2C(=O)Nc2ncc(C#Cc3ccccc3)cc2C)CC1 recorded_result=0.96

###

Biological target: human TREK-1 (Homo sapiens, UniProt O95069)
Construct: expressed in transfected cells
Sequence (O95069 1-426): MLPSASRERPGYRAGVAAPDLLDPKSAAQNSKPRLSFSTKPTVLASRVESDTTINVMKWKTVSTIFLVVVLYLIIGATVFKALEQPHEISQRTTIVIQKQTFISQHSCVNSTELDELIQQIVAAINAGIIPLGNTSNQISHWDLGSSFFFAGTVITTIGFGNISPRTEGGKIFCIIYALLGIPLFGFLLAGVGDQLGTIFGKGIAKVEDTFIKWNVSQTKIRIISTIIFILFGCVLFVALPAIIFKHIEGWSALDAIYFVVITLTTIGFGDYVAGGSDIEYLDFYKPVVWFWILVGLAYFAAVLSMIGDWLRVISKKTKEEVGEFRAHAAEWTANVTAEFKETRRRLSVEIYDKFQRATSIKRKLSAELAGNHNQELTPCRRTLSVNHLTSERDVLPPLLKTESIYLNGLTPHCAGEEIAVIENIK
Assay: TREK-1 Thallium (Tl+) flux assay, Method 1
Format: cell-based
Conditions: TREK-1 Thallium (Tl+) flux assay; no *^12 (Method 2) mark on these rows
Below: a set of entries, each annotated with reported IC50.
measurement.label: IC50 (nM)

compound=CC(C)(C)OC(=O)N1CC[C@@H](Cn2ncc(Cl)c2C(=O)Nc2ncc(C#Cc3ccccc3)cc2F)[C@H](F)C1 recorded_result=370
compound=CC(C)(C)OC(=O)N[C@H]1CC[C@@H](n2ncc(Cl)c2C(=O)Nc2ncc(C#Cc3ccccc3)cc2F)CC1 recorded_result=530
compound=Cc1cc(C#Cc2ccc(F)cc2)cnc1NC(=O)c1c(Cl)cnn1C[C@H]1CCCN(C(=O)C(C)C)C1 recorded_result=620
compound="CC(=O)N1CC[C@@H](n2ncc(Cl)c2C(=O)Nc2ncc(C#Cc3ccccc3)cc2C)C[C@@H]1C (single isomer, unassigned)" recorded_result=430
compound=Cc1cc(C#Cc2ccc(F)cc2)cnc1NC(=O)c1c(Cl)cnn1C[C@@H]1CCN(C(=O)C(C)C)C[C@H]1F recorded_result=520
compound=Cc1cc(C#Cc2ccc(F)cc2)cnc1NC(=O)c1c(Cl)cnn1C[C@@H]1CCCN(C(=O)OC(C)(C)C)C1 recorded_result=760
compound=Cc1cc(C#Cc2cccc(F)c2)cnc1NC(=O)c1c(Cl)cnn1C[C@H]1COCCO1 recorded_result=500

###

Molecular target: human TREK-1 (Homo sapiens, UniProt O95069)
Construct: expressed in transfected cells
Sequence (O95069 1-426): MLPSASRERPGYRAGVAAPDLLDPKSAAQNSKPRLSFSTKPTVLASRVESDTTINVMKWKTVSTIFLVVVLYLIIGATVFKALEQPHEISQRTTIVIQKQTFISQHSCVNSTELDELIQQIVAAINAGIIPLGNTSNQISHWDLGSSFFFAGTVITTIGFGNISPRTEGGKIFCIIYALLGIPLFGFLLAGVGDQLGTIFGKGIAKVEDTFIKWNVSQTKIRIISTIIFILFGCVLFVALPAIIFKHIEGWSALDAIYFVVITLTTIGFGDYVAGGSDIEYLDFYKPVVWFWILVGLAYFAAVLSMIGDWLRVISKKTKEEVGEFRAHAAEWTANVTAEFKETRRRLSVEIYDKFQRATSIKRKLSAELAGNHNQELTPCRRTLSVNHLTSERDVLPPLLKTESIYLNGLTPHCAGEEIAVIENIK
Assay: TREK-1 Thallium (Tl+) flux assay, Method 1
Format: cell-based
Settings: TREK-1 Thallium (Tl+) flux assay; no *^12 (Method 2) mark on these rows
Below: a set of entries, each annotated with reported IC50.
measurement.label: IC50 (nM)

molecule=Cc1cc(C#Cc2ccccc2)cnc1NC(=O)c1c(Cl)cnn1[C@@H]1CCOC1 measurement_label=IC50 recorded_result=750
molecule="Cc1cc(C#Cc2ccc(F)cc2)cnc1NC(=O)c1c(Cl)cnn1C1CCN(C(=O)C2COCCO2)C1 (stereo not shown)" measurement_label=IC50 recorded_result=350
molecule="Cc1cc(C#Cc2ccc(F)cc2)cnc1NC(=O)c1c(Cl)cnn1CC1C2CC1CN(C(=O)C(C)C)C2 (stereo not shown)" measurement_label=IC50 recorded_result=590
molecule=Cc1cc(C#Cc2cccc(F)c2)cnc1NC(=O)c1c(Cl)cnn1C1CCN(C(=O)C(C)(C)C)CC1 measurement_label=IC50 recorded_result=310

Reference source: patent US20240182445A1
